The entries below come with measured EC50 values attached.
# Target: T1, SARS-COV-2 RBD (SARS-COV-2, UniProt P0DTC2 319-539)
# T1 construct: also called WT RBD
# Experiment Description: ELISA, RBD coated
# value in ng/mL; strip the unit string

Binder | Endpoint Name | Measured Result
C972 (antibody, V domains shown, IgG; V domains only) VH: EVQLVESGGGLVQPGGSLRLSCAASEFIVSRNYMSWVRQAPGKGLEWVSLIYPGGSTYYPDSVKGRFTISRDNSKNTLYLQMNSLRGEDTAVYYCARDLGDSRLDYWGQGALVTVSS VL: DIQLTQSPSFLSASVGDRVTITCRASQGISSYLAWYQQDPGKAPKLLIYAASTLQSGVPSRFSGSGSGTEFTLTISSLQPEDFATYYCQQLDSYPPGYSFGQGTKLEIK | EC50 | 2.18

As a next step, examine the binder that follows.
Indicate its recorded EC50; the binder in question is C900 (antibody, V domains shown, IgG; V domains only) VH: QVQLQESGPGLVKPSGTLSLTCTVSGGSINSRNWWSWVRQPPGKGLEWIGEIFHSGSTNYNPSLESRVAISIDKSHNHFSLKLTSVTAADTAVYYCARANGILDFWGQGTLVTVSS VL: DIQMTQSPSSLSASVGDRVTITCRASQGISNSLAWYQLKPGKAPKLLLYAASTLESGVPSRFSGSGSGTNFTLTISSLQPEDFASYCCQHYYSSPRTFGQGTKVEI
2.54
